# test-details: Solubility in buffers, HPLC of mother liquors (Tables 12 and 13)
# Assay type: physicochemical
# condition-info: pH 9 buffer, 25 °C, aqueous buffer, thermodynamic from solid; pH 9; Final pH 9.01; Final XRD Freebase Form 1; read-out: Solubility Concentration
value-kind: solubility at 25 h (µg/mL)
Numbers only, in µg/mL.

**Query** In one line, give reported solubility at 25 h of the entry Nc1nccc(Sc2cnc(N3CCC4(CC3)Cc3ccccc3[C@H]4N)nn2)c1Cl .
**Result** 0.18

====

# test-details: Solubility of salts in buffer systems at 37° C. (Table 14)
# Type: physicochemical
# condition-info: pH 1.2 HCl buffer, simulated gastric fluid, thermodynamic from solid, pH 1.2 HCl, 20 mg in 1 mL, read-out: Solubility pH 1.2 HCl
Kindly state solubility at 18 h for each of the entries shown.

1. Nc1nccc(Sc2cnc(N3CCC4(CC3)Cc3ccccc3[C@H]4N)nn2)c1Cl.O=C(O)/C=C/C(=O)O    > 20 mg/mL
2. Nc1nccc(Sc2cnc(N3CCC4(CC3)Cc3ccccc3[C@H]4N)nn2)c1Cl.O=C(O)C(O)C(O)C(=O)O    > 20 mg/mL

Lab note: next molecule to report on.
**Query** In one line, give reported solubility at 18 h of the entry Nc1nccc(Sc2cnc(N3CCC4(CC3)Cc3ccccc3[C@H]4N)nn2)c1Cl .
**Result** > 20 mg/mL
